Entries and their measured AC50 follow.
# measured-on: human Peripheral-type Benzodiazepine Receptor (PBR), TSPO (gene 706) (UniProt P30536)
# Sequence (P30536 whole entry, looked up): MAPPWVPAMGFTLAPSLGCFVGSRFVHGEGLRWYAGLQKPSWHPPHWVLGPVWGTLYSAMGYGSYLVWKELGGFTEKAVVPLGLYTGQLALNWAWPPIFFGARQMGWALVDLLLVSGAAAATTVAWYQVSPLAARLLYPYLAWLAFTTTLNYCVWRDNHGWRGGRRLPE
# assay-explanation: NVS_MP_hPBR: NovaScreen (NVS) Membrane Protein Assay for human Peripheral-type Benzodiazepine Receptor (PBR) (AID 2283331);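 note: hits reduce radioligand binding relative to DMSO baseline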
Inconclusive results are not listed. Active and inactive are the calls of the source. Rule for the calls: active = hit-call score of the fitted dose curve at least 0.9, where 1 is the maximum; inconclusive = response in the unintended direction; inactive = score below 0.9.

The cases that follow already have their AC50 on record.
>  <compound>
CN(C)c1ccc2nc3ccc(=[N+](C)C)cc-3sc2c1

>  <reported-result>
10.2 µM (active)

$$$$
>  <compound>
O=C(Oc1ccccc1)c1ccccc1C(=O)Oc1ccccc1

>  <reported-result>
1.78 µM (active)

$$$$
>  <compound>
C=CCOC(=O)c1ccc(C(=O)OCC=C)c(C(=O)OCC=C)c1

>  <reported-result>
9.19 µM (active)

$$$$

Here is another compound to look at.
Form field: reported AC50 of CC(Cl)COP(=O)(OCC(C)Cl)OCC(C)Cl (centres undefined)
25 µM (active)
